Molecular target: TTD (UHRF1_121–286) (Homo sapiens, UniProt Q96T88)
Construct: UHRF1_121–286 corresponding to the TTD; made in house
Sequence (Q96T88 121-286): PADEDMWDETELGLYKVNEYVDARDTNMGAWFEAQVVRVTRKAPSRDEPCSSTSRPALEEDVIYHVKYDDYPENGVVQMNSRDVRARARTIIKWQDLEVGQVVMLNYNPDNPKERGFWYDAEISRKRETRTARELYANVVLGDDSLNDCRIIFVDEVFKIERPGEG
Assay: ITC of BPC binding to TTD
Settings: ITC, 2.5 mM BPC into 40 μM TTD, 20 mM Tris pH 7.4, 50 mM NaCl, 5% DMSO, 25 °C, independent-binding site model; read-out: KD
PROPERTY LABEL: Kd (µM)
State the answer as a number, implicitly in µM.

Ask: Please supply the value of reported Kd for the item N=C(N)N1CCC(Cc2ccccc2)CC1 [BPC, 4-benzylpiperidine-1-carboximidamide]
Reply: 46

###

Target: TTD (UHRF1_121–286) (Homo sapiens)
Construct: UHRF1_121–286 corresponding to the TTD; made in house
Test: (1H-15N) HSQC NMR titration of TTD
Format: binding
Conditions: HSQC titration, ~250 μM TTD, 5% DMSO, pH 7.5, 25 °C; residue Y239; read-out: KD estimate from Y239 amide peak movement
PROPERTY LABEL: pKd
pKd here is simply -log10 of the concentration when that concentration is written in mol/L.

Ask: Please supply the value of reported pKd for the item N=C(N)N1CCC(Cc2ccccc2)CC1 [BPC, 4-benzylpiperidine-1-carboximidamide]
Reply: 4.12
